system: NCI-H23 complex spheroids with HUVEC/MSC, viability; assay: Anticancer human tumor NCI-H23 cell line growth inhibition [RAS]; conditions: second compound 0.1 µM; first compound 1 µM; active compounds read low;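 further: spheroids exposed to compound for 7 days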
Lab note: class by viability, T/C, see bottom range = under 40%, center range = from 40% up to 50%, top range = 50% and over

{"columns": ["compound", "class label"],
 "data": [
  ["C[C@@H](NC(=O)c1ncnc(N)c1Cl)c1ncc(C(=O)Nc2cc(C(F)(F)F)c(Cl)cn2)s1 + C=CC(=O)N1CCN(c2nc(OCC3CCCN3C)nc3c(F)c(-c4nc(N)cc(C)c4C(F)(F)F)c(Cl)cc23)C(C)C1", "center range"]
]}

Consider CC1(O)CCCC1n1c(=O)c(C(F)F)cc2cnc(NC3CCN(S(C)(=O)=O)CC3)nc21 (stereo not given) + C#Cc1c(F)ccc2cc(O)cc(-c3ncc4c(N5CC6CCC(C5)N6)nc(OCC56CCCN5CC(F)C6)nc4c3F)c12 . To which viability, T/C class does it belong?
top range

Where would NC1c2ccccc2OC12CCN(c1cnc3c(N4CCCc5ncccc54)n[nH]c3n1)CC2 (stereo not given) + C#Cc1c(F)ccc2cc(O)cc(-c3ncc4c(N5CC6CCC(C5)N6)nc(OCC56CCCN5CC(F)C6)nc4c3F)c12 land among the classes by reported viability, T/C?
bottom range

Quick check: band for C=CC(=O)N1CCN(c2nc(OCC3CCCN3C)nc3c(F)c(-c4nc(N)cc(C)c4C(F)(F)F)c(Cl)cc23)C(C)C1 (stereo not given) + C#Cc1c(F)ccc2cc(O)cc(-c3ncc4c(N5CC6CCC(C5)N6)nc(OCC56CCCN5CC(F)C6)nc4c3F)c12
center range

The entry to classify is NC1c2ccccc2OC12CCN(c1cnc3c(N4CCCc5ncccc54)n[nH]c3n1)CC2 (stereo not given) + C=CC(=O)N1CCN(c2nc(OCC3CCCN3C)nc3c(F)c(-c4nc(N)cc(C)c4C(F)(F)F)c(Cl)cc23)C(C)C1 ; which class holds it?
bottom range
